Test system: Escherichia coli strain EDL933 (EHEC)
Experimental protocol: Disk diffusion susceptibility test; note: key: -: No inhibition; +: Positive inhibition (zone of inhibition mm)
Assay type: cell-based
Condition label: 5 mg per disc, 37 °C, 24 h

{"Molecule": "c1ccc(-n2cc3ccccc3n2)cc1", "Measured target": "Escherichia coli strain EDL933 (EHEC)", "Inhibition (positive / none) E. coli 933": "-"}
{"Molecule": "Clc1ccc(-c2c3ccccc3nn2-c2ccccc2)cc1", "Measured target": "Escherichia coli strain EDL933 (EHEC)", "Inhibition (positive / none) E. coli 933": "+"}
{"Molecule": "c1ccc(-c2c3ccccc3nn2-c2ccccc2)cc1", "Measured target": "Escherichia coli strain EDL933 (EHEC)", "Inhibition (positive / none) E. coli 933": "-"}
{"Molecule": "O=C(O)c1ccc(-n2nc3ccccc3c2-c2ccccc2)cc1", "Measured target": "Escherichia coli strain EDL933 (EHEC)", "Inhibition (positive / none) E. coli 933": "+"}
{"Molecule": "CS(=O)(=O)c1ccc(-c2c3ccccc3nn2-c2ccccc2)cc1", "Measured target": "Escherichia coli strain EDL933 (EHEC)", "Inhibition (positive / none) E. coli 933": "-"}
{"Molecule": "CS(=O)(=O)c1ccc(-n2cc3ccccc3n2)cc1", "Measured target": "Escherichia coli strain EDL933 (EHEC)", "Inhibition (positive / none) E. coli 933": "-"}
{"Molecule": "COC(=O)c1ccc(-n2cc3ccccc3n2)cc1 [Compound 10, Methyl 4-(2H-indazol-2-yl) benzoate]", "Measured target": "Escherichia coli strain EDL933 (EHEC)", "Inhibition (positive / none) E. coli 933": "-"}
{"Molecule": "CS(=O)(=O)c1ccc(-n2nc3ccccc3c2-c2ccccc2)cc1", "Measured target": "Escherichia coli strain EDL933 (EHEC)", "Inhibition (positive / none) E. coli 933": "-"}
{"Molecule": "COC(=O)c1ccc(-n2nc3ccccc3c2-c2ccccc2)cc1", "Measured target": "Escherichia coli strain EDL933 (EHEC)", "Inhibition (positive / none) E. coli 933": "-"}
{"Molecule": "COC(=O)c1ccc(-c2c3ccccc3nn2-c2ccccc2)cc1", "Measured target": "Escherichia coli strain EDL933 (EHEC)", "Inhibition (positive / none) E. coli 933": "-"}
{"Molecule": "O=C(O)c1ccc(-c2c3ccccc3nn2-c2ccccc2)cc1", "Measured target": "Escherichia coli strain EDL933 (EHEC)", "Inhibition (positive / none) E. coli 933": "+"}
{"Molecule": "Clc1ccc(-n2nc3ccccc3c2-c2ccccc2)cc1", "Measured target": "Escherichia coli strain EDL933 (EHEC)", "Inhibition (positive / none) E. coli 933": "+"}

====

Below, each entry is listed with its recorded melting point.
Endpoint: melting point

{"Entry smiles": "Clc1ccc(-c2c3ccccc3nn2-c2ccccc2)cc1", "Endpoint": "melting point", "Measured value": "141.1 to 142.8 °C"}
{"Entry smiles": "O=C(O)c1ccc(-n2nc3ccccc3c2-c2ccccc2)cc1", "Endpoint": "melting point", "Measured value": "129.2 to 130.1 °C"}
{"Entry smiles": "CS(=O)(=O)c1ccc(-c2c3ccccc3nn2-c2ccccc2)cc1", "Endpoint": "melting point", "Measured value": "206.9 to 208.8 °C"}
{"Entry smiles": "COC(=O)c1ccc(-n2nc3ccccc3c2-c2ccccc2)cc1", "Endpoint": "melting point", "Measured value": "152.4 to 154.9 °C"}

Hello, the source for this data is paper PMC6150295, in case you need it.
